All values here come from patent US9156845B2.

Molecular target: mutant G2019S LRRK2 (Homo sapiens (Human), UniProt Q5S007, G2019S)
Sequence (Q5S007 970-2527 G2019S): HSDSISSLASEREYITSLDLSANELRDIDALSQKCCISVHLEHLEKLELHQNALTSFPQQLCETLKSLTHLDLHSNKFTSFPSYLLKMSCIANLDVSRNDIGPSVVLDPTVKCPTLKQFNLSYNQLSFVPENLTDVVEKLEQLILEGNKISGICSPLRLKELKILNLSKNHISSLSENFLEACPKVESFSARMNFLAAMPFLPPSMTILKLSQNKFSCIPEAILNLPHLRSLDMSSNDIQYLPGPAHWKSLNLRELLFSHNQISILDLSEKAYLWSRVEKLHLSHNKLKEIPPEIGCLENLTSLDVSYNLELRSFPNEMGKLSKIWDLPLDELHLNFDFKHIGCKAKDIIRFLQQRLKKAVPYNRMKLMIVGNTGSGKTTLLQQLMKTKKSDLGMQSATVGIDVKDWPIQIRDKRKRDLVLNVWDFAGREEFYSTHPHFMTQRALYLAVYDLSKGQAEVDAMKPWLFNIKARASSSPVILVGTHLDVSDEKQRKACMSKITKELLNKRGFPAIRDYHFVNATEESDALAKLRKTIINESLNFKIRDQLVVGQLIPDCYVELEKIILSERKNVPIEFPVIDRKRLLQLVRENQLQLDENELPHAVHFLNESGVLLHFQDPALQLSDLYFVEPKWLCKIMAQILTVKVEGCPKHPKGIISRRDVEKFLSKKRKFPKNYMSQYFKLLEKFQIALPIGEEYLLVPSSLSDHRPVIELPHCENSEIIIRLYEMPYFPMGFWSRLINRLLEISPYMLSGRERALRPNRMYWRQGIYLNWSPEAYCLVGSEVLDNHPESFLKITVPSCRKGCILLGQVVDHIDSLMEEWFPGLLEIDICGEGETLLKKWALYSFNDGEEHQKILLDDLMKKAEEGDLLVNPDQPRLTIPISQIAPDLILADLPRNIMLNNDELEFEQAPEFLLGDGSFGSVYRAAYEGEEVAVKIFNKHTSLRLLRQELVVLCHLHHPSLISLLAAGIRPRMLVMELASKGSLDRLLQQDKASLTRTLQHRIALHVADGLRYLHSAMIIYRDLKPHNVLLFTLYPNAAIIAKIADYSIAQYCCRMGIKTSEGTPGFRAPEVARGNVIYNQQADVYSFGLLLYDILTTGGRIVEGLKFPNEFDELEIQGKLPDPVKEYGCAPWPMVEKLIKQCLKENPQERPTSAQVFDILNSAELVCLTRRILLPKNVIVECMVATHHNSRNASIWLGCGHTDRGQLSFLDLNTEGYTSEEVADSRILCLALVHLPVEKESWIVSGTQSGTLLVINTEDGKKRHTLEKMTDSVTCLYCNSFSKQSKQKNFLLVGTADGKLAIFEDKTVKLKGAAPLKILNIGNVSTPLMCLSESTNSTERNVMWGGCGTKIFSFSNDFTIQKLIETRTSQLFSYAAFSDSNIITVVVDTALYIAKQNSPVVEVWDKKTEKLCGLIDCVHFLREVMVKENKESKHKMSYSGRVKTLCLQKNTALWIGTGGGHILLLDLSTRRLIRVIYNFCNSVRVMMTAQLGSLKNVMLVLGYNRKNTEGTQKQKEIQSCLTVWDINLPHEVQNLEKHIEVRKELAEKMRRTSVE
Test: LRRK2 Lantha Screen kinase assay, mutant enzyme
Conditions: geometric mean of 2-5 determinations unless otherwise indicated (a: >=6 determinations; b: single determination)
Reported endpoint: pIC50
Just so you know, pIC50 here is -log10 of the concentration in molar units; reply with that number alone.

N#Cc1cccc(-c2c[nH]c3ncnc(N4CCC[C@H](O)C4)c23)c1 ... 7.02
Cn1cc(-c2c[nH]c3ncnc(N4CCOCC4)c23)nc1C#N ... 7.83
Cc1nc2sccn2c1-c1c[nH]c2ncnc(N3CCOCC3)c12 ... 6.87

// pIC50 (mutant G2019S LRRK2 (Homo sapiens (Human), UniProt Q5S007, G2019S)) for `N#Cc1cccc(-c2c[nH]c3ncnc(N4CC[C@H](F)C4)c23)c1` = 6.81
